Source listed as patent EP0187355A1.

Each entry below carries its measured MIC, system: Escherichia coli, 10909.
Structures can show the parent of a compound that is named as a salt.
measured-attribute: MIC (µg/mL)

- compound: "C[C@H]1[C@H](NC(=O)/C(=N\\OCC(=O)O)c2csc(N)n2)C(=O)N1S(=O)(=O)O [Example 31, dipotassium salt]"
  sign-qualifier: "="
  result: 0.1
- compound: "CC1C(NC(=O)C(NC(=O)N2CCN(N=Cc3ccco3)C2=O)c2ccccc2)C(=O)N1S(=O)(=O)O (stereo not shown) [Example 11, potassium salt]"
  sign-qualifier: "="
  result: 0.1
- compound: "CC1C(NC(=O)C(NC(=O)N2CCN(N)C(=O)C2=O)c2ccccc2)C(=O)N1S(=O)(=O)O (stereo not shown) [Example 32, potassium salt]"
  sign-qualifier: "="
  result: 0.8
- compound: "C[C@@H]1[C@H](NC(=O)[C@H](NC(=O)N2CCN(NC(=O)OCc3ccccc3)C(=O)C2=O)c2ccccc2)C(=O)N1S(=O)(=O)O (relative stereo) [Example 20, potassium salt]"
  sign-qualifier: "="
  result: 0.4
- compound: "C[C@H]1[C@H](NC(=O)OCc2ccccc2)C(=O)N1S(=O)(=O)O [Example 2, potassium salt]"
  sign-qualifier: ">"
  result: 100
- compound: "CC1(C)C(NC(=O)Cc2ccccc2)C(=O)N1S(=O)(=O)O (racemic) [Example 26, potassium salt]"
  sign-qualifier: ">"
  result: 100
- compound: "CC1C(NC(=O)C(=NO)c2csc(N)n2)C(=O)N1S(=O)(=O)O (stereo not shown) [Example 13, potassium salt]"
  sign-qualifier: "="
  result: 0.8

* * *

# Test system: Pseudomonas aeruginosa, 9545
# test-method-notes: MIC, agar dilution
# Assay type: cell-based
# measurement-setup: Pseudomonas aeruginosa, 9545, 18 h, K-10 agar, 10^4 CFU, 37°C, read-out: M.I.C.
Structures can show the parent of a compound that is named as a salt.

- compound: "CON=C(C(=O)NC1C(=O)N(S(=O)(=O)O)C1C)c1csc(N)n1 (centres unmarked) [Example 5, potassium salt]"
  measure-unit: "µg/mL"
  sign-qualifier: "="
  MIC: 0.8
- compound: "C[C@H]1[C@H](NC(=O)/C(=N\\OCC(=O)O)c2csc(N)n2)C(=O)N1S(=O)(=O)O [Example 31, dipotassium salt]"
  measure-unit: "µg/mL"
  sign-qualifier: "="
  MIC: 0.8
- compound: "CC1C(NC(=O)C(=NO)c2csc(N)n2)C(=O)N1S(=O)(=O)O (centres unmarked) [Example 13, potassium salt]"
  measure-unit: "µg/mL"
  sign-qualifier: "="
  MIC: 6.3
- compound: "C[C@H]1[C@H](NC(=O)/C(=N\\OC(C)(C)C(=O)OCc2ccc([N+](=O)[O-])cc2)c2csc(N)n2)C(=O)N1S(=O)(=O)O [Example 15, potassium salt]"
  measure-unit: "µg/mL"
  sign-qualifier: "="
  MIC: 12.5
- compound: "CON=C(C(=O)NC1C(=O)N(S(=O)(=O)O)C1C)c1csc(N)n1 (racemic) [Example 7, potassium salt]"
  measure-unit: "µg/mL"
  sign-qualifier: "="
  MIC: 0.8
- compound: "CC1C(NC(=O)OCc2ccccc2)C(=O)N1S(=O)(=O)O (racemic) [Example 1, potassium salt]"
  measure-unit: "µg/mL"
  sign-qualifier: ">"
  MIC: 100
- compound: "C[C@H]1[C@H](NC(=O)Cc2ccccc2)C(=O)N1S(=O)(=O)O [Example 3, potassium salt]"
  measure-unit: "µg/mL"
  sign-qualifier: "="
  MIC: 50
- compound: "CC1C(NC(=O)C(NC(=O)N2CCN(N)C(=O)C2=O)c2ccccc2)C(=O)N1S(=O)(=O)O (centres unmarked) [Example 32, potassium salt]"
  measure-unit: "µg/mL"
  sign-qualifier: "="
  MIC: 6.3
- compound: "CCN1CCN(C(=O)N[C@@H](C(=O)N[C@@H]2C(=O)N(S(=O)(=O)O)[C@@H]2C)c2ccccc2)C(=O)C1=O (relative stereo) [Example 22, potassium salt]"
  measure-unit: "µg/mL"
  sign-qualifier: "="
  MIC: 6.3
- compound: "CC1C(NC(=O)Cc2ccccc2)C(=O)N1S(=O)(=O)O (racemic) [Example 4, potassium salt]"
  measure-unit: "µg/mL"
  sign-qualifier: ">"
  MIC: 100
- compound: "COC1(NC(=O)Cc2ccccc2)C(=O)N(S(=O)(=O)O)C1C (centres unmarked) [Example 29, potassium salt]"
  measure-unit: "µg/mL"
  sign-qualifier: ">"
  MIC: 100
- compound: "CCN1CCN(C(=O)NC(C(=O)NC2C(=O)N(S(=O)(=O)O)C2C)c2ccccc2)C(=O)C1=O (centres unmarked) [Example 12, potassium salt]"
  measure-unit: "µg/mL"
  sign-qualifier: "="
  MIC: 0.8
- compound: "C[C@H]1[C@H](NC(=O)C(=O)c2csc(N)n2)C(=O)N1S(=O)(=O)O [Example 27, potassium salt]"
  measure-unit: "µg/mL"
  sign-qualifier: "="
  MIC: 50
- compound: "CC1(C)C(NC(=O)Cc2ccccc2)C(=O)N1S(=O)(=O)O (racemic) [Example 26, potassium salt]"
  measure-unit: "µg/mL"
  sign-qualifier: ">"
  MIC: 100
- compound: "C[C@H]1[C@H](NC(=O)OCc2ccccc2)C(=O)N1S(=O)(=O)O [Example 2, potassium salt]"
  measure-unit: "µg/mL"
  sign-qualifier: ">"
  MIC: 100
- compound: "CO/N=C(\\C(=O)NC1C(=O)N(S(=O)(=O)O)C1(C)C)c1csc(N)n1 (racemic) [Example 25, potassium salt]"
  measure-unit: "µg/mL"
  sign-qualifier: ">"
  MIC: 100
- compound: "C[C@@H]1[C@H](NC(=O)[C@H](NC(=O)N2CCN(N=Cc3ccco3)C2=O)c2ccccc2)C(=O)N1S(=O)(=O)O (relative stereo) [Example 21, potassium salt]"
  measure-unit: "µg/mL"
  sign-qualifier: "="
  MIC: 12.5
- compound: "CC1C(NC(=O)C(NC(=O)C(N)=O)c2cccs2)C(=O)N1S(=O)(=O)O (racemic) [Example 14, potassium salt]"
  measure-unit: "µg/mL"
  sign-qualifier: "="
  MIC: 3.1
- compound: "CC1C(NC(=O)C(NC(=O)N2CCN(N=Cc3ccco3)C2=O)c2ccccc2)C(=O)N1S(=O)(=O)O (centres unmarked) [Example 11, potassium salt]"
  measure-unit: "µg/mL"
  sign-qualifier: "="
  MIC: 1.6
- compound: "C[C@@H]1[C@H](NC(=O)[C@H](NC(=O)N2CCN(NC(=O)OCc3ccccc3)C(=O)C2=O)c2ccccc2)C(=O)N1S(=O)(=O)O (relative stereo) [Example 20, potassium salt]"
  measure-unit: "µg/mL"
  sign-qualifier: "="
  MIC: 3.1
